# experiment description: self-splicing fitness, log relative to wild type (ln ratio); higher = more splicing; Tetrahymena group I intron in knt gene, E. coli kanamycin selection, DiMSum; sequences stand for … in CUCUCU…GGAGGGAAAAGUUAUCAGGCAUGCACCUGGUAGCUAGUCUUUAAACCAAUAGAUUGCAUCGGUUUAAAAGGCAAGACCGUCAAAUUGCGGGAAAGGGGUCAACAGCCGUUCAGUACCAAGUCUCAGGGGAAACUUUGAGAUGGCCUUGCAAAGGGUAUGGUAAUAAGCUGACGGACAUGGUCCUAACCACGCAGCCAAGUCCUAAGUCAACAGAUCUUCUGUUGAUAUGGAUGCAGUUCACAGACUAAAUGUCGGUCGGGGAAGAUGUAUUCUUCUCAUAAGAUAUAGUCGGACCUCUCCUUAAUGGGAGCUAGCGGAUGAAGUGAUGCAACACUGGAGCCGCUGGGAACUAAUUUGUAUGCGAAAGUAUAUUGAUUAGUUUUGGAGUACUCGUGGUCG;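 note: selection with 25 µg/mL kanamycin versus none on LB agar overnight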
# particulars: 30 °C
Binary classification by self-splicing fitness (ln), with -2 as an inclusive lower bound for true (1); all other cases are false (0).

GAUUAGCAAUAUUACGCACC :: true (1)
UAUGAGCAAUAUUACGUCUC :: false (0)
UGAGAGCAAUAUUACGACAU :: false (0)
AUCCAGCAAUAUUACGAAAC :: false (0)
CCGGAGCAAUAUUACGCGCG :: false (0)
AUGGAGCAAUAUUACGGUGU :: false (0)
UCGAAGCAAUAUUACGGGGG :: true (1)
GUUGAGCAAUAUUACGCGAU :: false (0)
UGAGAGCAAUAUUACGUUCA :: true (1)
GCAUAGCAAUAUUACGGUCC :: true (1)

Incoming: State whether the measured self-splicing fitness (ln) reaches -2, counting equality as reaching it, for AGGAAGCAAUAUUACGAAUG
Outgoing: false (0)

Incoming: Moving on to the next sequence: UGAGAGCAAUAUUACGGUUU
Outgoing: false (0)

====

# experiment description: self-splicing fitness, log relative to wild type (ln ratio); higher = more splicing; Tetrahymena group I intron in knt gene, E. coli kanamycin selection, DiMSum; sequences stand for … in CUCUCU…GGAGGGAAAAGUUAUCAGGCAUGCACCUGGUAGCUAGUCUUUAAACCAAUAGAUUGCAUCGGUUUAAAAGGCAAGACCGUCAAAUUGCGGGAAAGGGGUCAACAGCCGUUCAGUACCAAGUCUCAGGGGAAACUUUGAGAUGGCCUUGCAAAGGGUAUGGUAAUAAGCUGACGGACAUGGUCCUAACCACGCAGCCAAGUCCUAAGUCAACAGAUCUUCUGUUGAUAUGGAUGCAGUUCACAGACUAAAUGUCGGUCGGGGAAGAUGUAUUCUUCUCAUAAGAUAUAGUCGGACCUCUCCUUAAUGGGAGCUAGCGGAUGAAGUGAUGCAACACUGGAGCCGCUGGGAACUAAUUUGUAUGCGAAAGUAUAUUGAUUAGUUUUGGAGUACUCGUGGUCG
# particulars: 30 °C
result type: self-splicing fitness (ln)

Example results:
AUCCAGCAAUAUUACGAGCG :: -2.01
CGAAAGCAAUAUUACGUCGC :: -3.03
GCCAAGCAAUAUUACGUUGC :: -2.91

Incoming: Give the measured self-splicing fitness (ln) of ACGGAGCAAUAUUACGACUG .
Outgoing: -1.95
